molecular target: dopamine transporter (DAT) (Rattus norvegicus); assay: biochemical; settings: ratio of release potencies, rat brain synaptosomes; Table 4
What DA/5-HT Ratio was measured for each of the following?
# respond with the number and nothing more

input: # query: DA/5-HT Ratio of entry Cc1ccc(CC(C)N)cc1 (stereo not shown)
output: 1.2

input: What do we get for CC(N)Cc1cccc(F)c1 (stereo not shown) ?
output: 80

input: What do we get for Cc1cccc(CC(C)N)c1 (stereo not shown) ?
output: 6.5

input: What do we get for CC(N)Cc1ccc(F)cc1 (stereo not shown) ?
output: 18

----------
biological target: dopamine transporter (DAT) (Rattus norvegicus, UniProt P23977); assay: biochemical; conditions: read-out: DA Release EC50; rat brain synaptosomes; mean ± SD, n=3; Table 3
Sequence (P23977 whole entry): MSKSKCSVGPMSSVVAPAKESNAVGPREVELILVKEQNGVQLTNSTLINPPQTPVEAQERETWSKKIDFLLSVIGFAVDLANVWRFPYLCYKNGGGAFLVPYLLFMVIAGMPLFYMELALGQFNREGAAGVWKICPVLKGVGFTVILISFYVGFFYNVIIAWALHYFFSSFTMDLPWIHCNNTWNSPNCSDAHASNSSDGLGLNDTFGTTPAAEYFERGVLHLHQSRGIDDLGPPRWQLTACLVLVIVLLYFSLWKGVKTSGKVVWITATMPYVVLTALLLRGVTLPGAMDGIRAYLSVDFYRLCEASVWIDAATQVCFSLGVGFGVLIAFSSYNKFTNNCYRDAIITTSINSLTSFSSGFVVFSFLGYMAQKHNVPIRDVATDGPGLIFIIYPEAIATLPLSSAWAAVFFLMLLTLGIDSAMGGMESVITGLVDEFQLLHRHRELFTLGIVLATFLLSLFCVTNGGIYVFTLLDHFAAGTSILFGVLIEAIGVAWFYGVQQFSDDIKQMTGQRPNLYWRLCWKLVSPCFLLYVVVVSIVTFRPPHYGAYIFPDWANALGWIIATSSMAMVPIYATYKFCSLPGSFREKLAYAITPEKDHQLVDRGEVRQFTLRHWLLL
QUANTITY NAME: EC50 (nM)
Give just the numeric value; nM need not be written.

input: # query: EC50 of entry "CCN[C@@H](C)Cc1ccc2ccccc2c1"
output: 46

input: What do we get for "Cc1cccc(N2CCNCC2)c1C" ?
output: 1210

input: What do we get for CNC(C)Cc1ccc2ccccc2c1 (stereo not shown) ?
output: 10

input: What do we get for "Cc1ccccc1N1CCNCC1" ?
output: 296

----------
What DA Release EMAX was measured for each of the following?
biological target: dopamine transporter (DAT) (Rattus norvegicus); assay: biochemical; settings: rat brain synaptosomes; % maximal release; Table 3
Give just the numeric value; % need not be written.

input: # query: DA Release EMAX of entry CCNC(C)Cc1ccccc1 (centres unmarked) [PAL-99]
output: 111

input: What do we get for Cc1cccc(N2CCNCC2)c1C [PAL-218, 2,3-Dimethylphenylpiperazine] ?
output: 66

input: What do we get for CCN[C@@H](C)Cc1ccc2ccccc2c1 [PAL-1045] ?
output: 78

input: What do we get for CNC(C)Cc1ccc2ccccc2c1 (centres unmarked) [PAL-1046] ?
output: 101

input: What do we get for Cc1ccccc1N1CCNCC1 [PAL-169, 2-Methylphenylpiperazine] ?
output: 90

----------
target: SERT (Rattus norvegicus); experiment: 5-HT release assay in synaptosomes; type: biochemical; details: read-out: 5-HT Release EC50; rat brain synaptosomes; mean ± SD, n=3; Table 4
Sequence (P31652 whole entry): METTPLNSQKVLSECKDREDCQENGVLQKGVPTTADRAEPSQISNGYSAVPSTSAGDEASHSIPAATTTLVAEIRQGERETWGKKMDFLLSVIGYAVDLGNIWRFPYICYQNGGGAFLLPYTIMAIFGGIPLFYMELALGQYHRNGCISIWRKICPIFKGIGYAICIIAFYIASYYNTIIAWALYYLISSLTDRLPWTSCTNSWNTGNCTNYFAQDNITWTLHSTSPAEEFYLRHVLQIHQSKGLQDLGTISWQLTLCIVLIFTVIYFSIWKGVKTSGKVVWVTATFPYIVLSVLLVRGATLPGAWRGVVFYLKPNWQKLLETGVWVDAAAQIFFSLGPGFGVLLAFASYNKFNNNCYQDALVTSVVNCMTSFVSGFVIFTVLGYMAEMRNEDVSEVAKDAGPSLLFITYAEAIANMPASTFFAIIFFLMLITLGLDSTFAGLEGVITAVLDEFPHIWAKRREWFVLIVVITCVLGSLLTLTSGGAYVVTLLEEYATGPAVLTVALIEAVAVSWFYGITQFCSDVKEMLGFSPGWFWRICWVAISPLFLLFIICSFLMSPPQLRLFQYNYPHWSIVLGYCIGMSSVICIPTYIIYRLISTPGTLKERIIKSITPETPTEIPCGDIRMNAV
What EC50 was measured for each of the following?

input: # query: EC50 of entry CC(N)Cc1ccc(F)cc1 (stereo not shown)
output: 0.939 µM

input: What do we get for CC(N)Cc1cccc(F)c1 (stereo not shown) ?
output: 1.94 µM

input: What do we get for Cc1ccc(CC(C)N)cc1 (stereo not shown) ?
output: 0.0534 µM

input: What do we get for Cc1cccc(CC(C)N)c1 (stereo not shown) ?
output: 0.218 µM

----------
biological target: dopamine transporter (DAT) (Rattus norvegicus); experiment: biochemical; conditions: read-out: DA Release EC50; rat brain synaptosomes; mean ± SD, n=3; Table 4
QUANTITY NAME: pEC50
Scale explanation: pEC50 corresponds to minus log10 of a concentration expressed in moles per litre.

input: # query: pEC50 of entry CC(N)Cc1ccc(F)cc1 (stereo not shown)
output: 7.29

input: What do we get for Cc1ccc(CC(C)N)cc1 (stereo not shown) ?
output: 7.36

input: What do we get for CC(N)Cc1cccc(F)c1 (stereo not shown) ?
output: 7.62

input: What do we get for Cc1cccc(CC(C)N)c1 (stereo not shown) ?
output: 7.48

----------
What EC50 was measured for each of the following?
molecular target: dopamine transporter (DAT) (Rattus norvegicus); assay: biochemical
Give just the numeric value; nM need not be written.

input: # query: EC50 of entry "CC(C)(N)Cc1ccccc1"
output: 262

input: What do we get for "CN[C@@H](C)Cc1ccccc1" ?
output: 24.5

input: What do we get for "NCCc1ccccc1" ?
output: 39.5

input: What do we get for CC1NCCOC1c1ccccc1 (single isomer, unassigned; (+)) [(+)-Phenmetrazine] ?
output: 87.4

input: What do we get for CNC(C)C(=O)c1ccc(C)cc1 (centres unmarked) ?
output: 49.1
